- System: Stp1 (UniProt B3LFK1)
- Sequence: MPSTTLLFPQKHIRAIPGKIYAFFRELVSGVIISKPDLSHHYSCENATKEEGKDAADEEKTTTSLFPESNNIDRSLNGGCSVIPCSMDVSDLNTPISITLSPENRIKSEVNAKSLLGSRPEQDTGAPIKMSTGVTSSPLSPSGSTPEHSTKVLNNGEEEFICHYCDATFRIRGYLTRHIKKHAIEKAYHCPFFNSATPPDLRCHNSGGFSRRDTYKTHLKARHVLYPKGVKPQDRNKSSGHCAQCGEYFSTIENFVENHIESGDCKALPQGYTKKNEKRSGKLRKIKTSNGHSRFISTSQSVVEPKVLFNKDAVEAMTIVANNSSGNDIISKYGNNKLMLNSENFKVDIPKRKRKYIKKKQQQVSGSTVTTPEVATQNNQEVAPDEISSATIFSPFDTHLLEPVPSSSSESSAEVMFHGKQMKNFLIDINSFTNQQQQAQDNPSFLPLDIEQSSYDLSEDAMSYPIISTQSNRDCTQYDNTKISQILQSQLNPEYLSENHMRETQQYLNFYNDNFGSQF
- Measurement notes: PBM E-score (8-mer binding enrichment) (E-score (-0.5 to 0.5)); higher = stronger / more preferred TF binding
- Conditions: protein concentration: 200 nM; construct: GST-full length
In all, about 33,000 sequences were measured (“E-score (-0.5 to 0.5)”: median about -0.016, highest 2% from about 0.32 on). Shown is part of a subset that was picked to be rich in the highest values.
// PBM E-score lookup, one value per entry
Observed property: PBM E-score

> print(dat)
   biosequence  observed.property  reported.result
1     AAGCGCCA        PBM E-score           0.0796
2     CAGACGGC        PBM E-score             0.42
3     AGTGCGGA        PBM E-score            0.224
4     CAGTGGGG        PBM E-score           -0.239
5     CAACGGAA        PBM E-score            0.123
6     AACCAGTT        PBM E-score            0.143

====

- System: Stp1 (UniProt B3LFK1)
- Sequence: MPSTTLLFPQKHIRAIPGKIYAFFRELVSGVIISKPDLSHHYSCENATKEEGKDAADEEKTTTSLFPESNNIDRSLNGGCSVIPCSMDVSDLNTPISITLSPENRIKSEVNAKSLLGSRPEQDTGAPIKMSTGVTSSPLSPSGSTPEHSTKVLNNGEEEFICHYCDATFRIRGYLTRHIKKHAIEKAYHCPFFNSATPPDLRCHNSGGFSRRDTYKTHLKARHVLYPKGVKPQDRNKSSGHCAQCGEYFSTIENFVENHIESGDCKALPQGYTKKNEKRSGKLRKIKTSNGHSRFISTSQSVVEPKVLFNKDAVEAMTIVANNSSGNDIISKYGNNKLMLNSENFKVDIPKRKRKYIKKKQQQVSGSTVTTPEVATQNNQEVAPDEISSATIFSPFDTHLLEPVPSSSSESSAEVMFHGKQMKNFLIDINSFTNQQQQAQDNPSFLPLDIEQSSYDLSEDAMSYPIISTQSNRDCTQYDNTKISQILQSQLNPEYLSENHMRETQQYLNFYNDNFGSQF
- Measurement notes: PBM E-score (8-mer binding enrichment) (E-score (-0.5 to 0.5)); higher = stronger / more preferred TF binding
- Conditions: protein concentration: 200 nM; construct: GST-full length
In all, about 33,000 sequences were measured (“E-score (-0.5 to 0.5)”: median about -0.016, highest 2% from about 0.32 on). What follows is part of a selection rich in the highest values, with near analogues and random picks from the rest.
Observed property: PBM E-score

> print(dat)
    biosequence                 system  reported.result
 1     CCACACTA  Stp1 (UniProt B3LFK1)            0.127
 2     AATTGCCA  Stp1 (UniProt B3LFK1)         -0.00723
 3     CAGGCCAG  Stp1 (UniProt B3LFK1)          -0.0909
 4     AGATAACT  Stp1 (UniProt B3LFK1)           -0.103
 5     AGGGTCAT  Stp1 (UniProt B3LFK1)           -0.233
 6     ATTGCGCA  Stp1 (UniProt B3LFK1)          -0.0299
 7     AATATGCG  Stp1 (UniProt B3LFK1)            0.114
 8     GGCCGTGA  Stp1 (UniProt B3LFK1)            0.126
 9     ACCCGCGC  Stp1 (UniProt B3LFK1)            0.232
10     TCCGTTCA  Stp1 (UniProt B3LFK1)           0.0192
11     TCCTTGCA  Stp1 (UniProt B3LFK1)          -0.0871
12     CGGTGCAG  Stp1 (UniProt B3LFK1)          -0.0834
13     ATGGGAAC  Stp1 (UniProt B3LFK1)           -0.132
14     AACCGTGC  Stp1 (UniProt B3LFK1)             0.26
15     ACTCTCCC  Stp1 (UniProt B3LFK1)           -0.159
16     AAAGCAAC  Stp1 (UniProt B3LFK1)           0.0791
17     GTCACAAA  Stp1 (UniProt B3LFK1)          -0.0375
18     AGGTACCC  Stp1 (UniProt B3LFK1)           -0.414
19     CCTCCAGA  Stp1 (UniProt B3LFK1)           0.0135
20     CATACTTC  Stp1 (UniProt B3LFK1)            -0.12
21     AAAGTATC  Stp1 (UniProt B3LFK1)            0.118
22     CTTGGTTC  Stp1 (UniProt B3LFK1)            0.197
23     ACCACTAT  Stp1 (UniProt B3LFK1)           -0.127
24     AATCGATG  Stp1 (UniProt B3LFK1)            0.174
25     ACCGCTCC  Stp1 (UniProt B3LFK1)           -0.223
26     CATTGCCG  Stp1 (UniProt B3LFK1)            0.358
27     GCCTCACC  Stp1 (UniProt B3LFK1)            0.327
28     AAGGAGAA  Stp1 (UniProt B3LFK1)           -0.131
29     ATTTGCCA  Stp1 (UniProt B3LFK1)          -0.0687
30     AGCCGCGA  Stp1 (UniProt B3LFK1)            0.159
31     GGCCCCCA  Stp1 (UniProt B3LFK1)           -0.406
32     AGCCGCGG  Stp1 (UniProt B3LFK1)            0.376
33     TGGGACAA  Stp1 (UniProt B3LFK1)            -0.23
34     ACCCGTGC  Stp1 (UniProt B3LFK1)            0.237
35     CCACGTGC  Stp1 (UniProt B3LFK1)            0.215
36     CTGAAAGC  Stp1 (UniProt B3LFK1)           0.0435
37     ATTGCTAA  Stp1 (UniProt B3LFK1)           0.0687
38     GCCGCTCA  Stp1 (UniProt B3LFK1)            0.381
39     ACCTTGTA  Stp1 (UniProt B3LFK1)           0.0137
40     CATTAAAA  Stp1 (UniProt B3LFK1)            0.245
41     ATCCGCGG  Stp1 (UniProt B3LFK1)             0.13
42     ACGACCGT  Stp1 (UniProt B3LFK1)            -0.11
43     GCCGTTCC  Stp1 (UniProt B3LFK1)            0.432
44     ATCCGTGA  Stp1 (UniProt B3LFK1)          0.00902
45     AGGTGCGG  Stp1 (UniProt B3LFK1)            0.189
46     GCCTCACA  Stp1 (UniProt B3LFK1)            0.263
47     ATGGATTA  Stp1 (UniProt B3LFK1)          -0.0582
48     AATAAGCC  Stp1 (UniProt B3LFK1)           0.0484
49     GTAGATGA  Stp1 (UniProt B3LFK1)           0.0463
50     GCAGGAGA  Stp1 (UniProt B3LFK1)           -0.303
